Values from the supplement of paper PMC5998384

Please respond with reported melting temperature for every item in the list.
System: HeLa Kyoto
Experiment: melting temperature (median over replicates), in situ; higher = more thermally stable
Conditions: cell cycle stage: G1/S
One number for each entry, in °C.

INSERT INTO measurements (entry_sequence, meas_value) VALUES
  ('MAERGYSFSLTTFSPSGKLVQIEYALAAVAGGAPSVGIKAANGVVLATEKKQKSILYDERSVHKVEPITKHIGLVYSGMGPDYRVLVHRARKLAQQYYLVYQEPIPTAQLVQRVASVMQEYTQSGGVRPFGVSLLICGWNEGRPYLFQSDPSGAYFAWKATAMGKNYVNGKTFLEKRYNEDLELEDAIHTAILTLKESFEGQMTEDNIEVGICNEAGFRRLTPTEVKDYLAAIA [PSMA2]', 58.3),
  ('MSRYGRYGGETKVYVGNLGTGAGKGELERAFSYYGPLRTVWIARNPPGFAFVEFEDPRDAEDAVRGLDGKVICGSRVRVELSTGMPRRSRFDRPPARRPFDPNDRCYECGEKGHYAYDCHRYSRRRRSRSRSRSHSRSRGRRYSRSRSRSRGRRSRSASPRRSRSISLRRSRSASLRRSRSGSIKGSRYFQSPSRSRSRSRSISRPRSSRSKSRSPSPKRSRSPSGSPRRSASPERMD [SRSF7]', 50.4);

Entry under review: MAAPKGSLWVRTQLGLPPLLLLTMALAGGSGTASAEAFDSVLGDTASCHRACQLTYPLHTYPKEEELYACQRGCRLFSICQFVDDGIDLNRTKLECESACTEAYSQSDEQYACHLGCQNQLPFAELRQEQLMSLMPKMHLLFPLTLVRSFWSDMMDSAQSFITSSWTFYLQADDGKIVIFQSKPEIQYAPHLEQEPTNLRESSLSKMSYLQMRNSQAHRNFLEDGESDGFLRCLSLNSGWILTTTLVLSVMVLLWICCATVATAVEQYVPSEKLSIYGDLEFMNEQKLNRYPASSLVVVRSKTEDHEEAGPLPTKVNLAHSEI [TMEM59] . Reported melting temperature?
54.8

---

Test system: HeLa Kyoto;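 note: HeLa Kyoto cells synchronized by double thymidine or nocodazole block, proteins quantified by TMT10plex mass spectrometry, three independent biological replicates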
Test: melting temperature (median over replicates), in situ; higher = more thermally stable
Settings: cell cycle stage: G1/S
Please respond with reported melting temperature for every item in the list.
Numbers only, in °C.

Fill in melting temperature for each of the 3 sequences listed.
1. MVFPAKRFCLVPSMEGVRWAFSCGTWLPSRAEWLLAVRSIQPEEKERIGQFVFARDAKAAMAGRLMIRKLVAEKLNIPWNHIRLQRTAKGKPVLAKDSSNPYPNFNFNISHQGDYAVLAAEPELQVGIDIMKTSFPGRGSIPEFFHIMKRKFTNKEWETIRSFKDEWTQLDMFYRNWALKESFIKAIGVGLGFELQRLEFDLSPLNLDIGQVYKETRLFLDGEEEKEWAFEESKIDEHHFVAVALRKPDGSRHQDVPSQDDSKPTQRQFTILNFNDLMSSAVPMTPEDPSFWDCFCFTEEIPIRNGTKS [AASDHPPT]
2. MALLFARSLRLCRWGAKRLGVASTEAQRGVSFKLEEKTAHSSLALFRDDTGVKYGLVGLEPTKVALNVERFREWAVVLADTAVTSGRHYWEVTVKRSQQFRIGVADVDMSRDSCIGVDDRSWVFTYAQRKWYTMLANEKAPVEGIGQPEKVGLLLEYEAQKLSLVDVSQVSVVHTLQTDFRGPVVPAFALWDGELLTHSGLEVPEGL [SPRYD4]
3. MGLLAFLKTQFVLHLLVGFVFVVSGLVINFVQLCTLALWPVSKQLYRRLNCRLAYSLWSQLVMLLEWWSCTECTLFTDQATVERFGKEHAVIILNHNFEIDFLCGWTMCERFGVLGSSKVLAKKELLYVPLIGWTWYFLEIVFCKRKWEEDRDTVVEGLRRLSDYPEYMWFLLYCEGTRFTETKHRVSMEVAAAKGLPVLKYHLLPRTKGFTTAVKCLRGTVAAVYDVTLNFRGNKNPSLLGILYGKKYEADMCVRRFPLEDIPLDEKEAAQWLHKLYQEKDALQEIYNQKGMFPGEQFKPARRPWTLLNFLSWATILLSPLFSFVLGVFASGSPLLILTFLGFVGAASFGVRRLIGVTEIEKGSSYGNQEFKKKE [AGPAT3]

1. 52.3
2. 53.9
3. 52.2
